target: Sentrin-specific protease 6 (Homo sapiens, UniProt Q9GZR1); format: functional;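 also: Luminescence-based dose-response confirmatory assay of SENP6 inhibition, following up an ultra-high-throughput screen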
Sequence (Q9GZR1 whole entry): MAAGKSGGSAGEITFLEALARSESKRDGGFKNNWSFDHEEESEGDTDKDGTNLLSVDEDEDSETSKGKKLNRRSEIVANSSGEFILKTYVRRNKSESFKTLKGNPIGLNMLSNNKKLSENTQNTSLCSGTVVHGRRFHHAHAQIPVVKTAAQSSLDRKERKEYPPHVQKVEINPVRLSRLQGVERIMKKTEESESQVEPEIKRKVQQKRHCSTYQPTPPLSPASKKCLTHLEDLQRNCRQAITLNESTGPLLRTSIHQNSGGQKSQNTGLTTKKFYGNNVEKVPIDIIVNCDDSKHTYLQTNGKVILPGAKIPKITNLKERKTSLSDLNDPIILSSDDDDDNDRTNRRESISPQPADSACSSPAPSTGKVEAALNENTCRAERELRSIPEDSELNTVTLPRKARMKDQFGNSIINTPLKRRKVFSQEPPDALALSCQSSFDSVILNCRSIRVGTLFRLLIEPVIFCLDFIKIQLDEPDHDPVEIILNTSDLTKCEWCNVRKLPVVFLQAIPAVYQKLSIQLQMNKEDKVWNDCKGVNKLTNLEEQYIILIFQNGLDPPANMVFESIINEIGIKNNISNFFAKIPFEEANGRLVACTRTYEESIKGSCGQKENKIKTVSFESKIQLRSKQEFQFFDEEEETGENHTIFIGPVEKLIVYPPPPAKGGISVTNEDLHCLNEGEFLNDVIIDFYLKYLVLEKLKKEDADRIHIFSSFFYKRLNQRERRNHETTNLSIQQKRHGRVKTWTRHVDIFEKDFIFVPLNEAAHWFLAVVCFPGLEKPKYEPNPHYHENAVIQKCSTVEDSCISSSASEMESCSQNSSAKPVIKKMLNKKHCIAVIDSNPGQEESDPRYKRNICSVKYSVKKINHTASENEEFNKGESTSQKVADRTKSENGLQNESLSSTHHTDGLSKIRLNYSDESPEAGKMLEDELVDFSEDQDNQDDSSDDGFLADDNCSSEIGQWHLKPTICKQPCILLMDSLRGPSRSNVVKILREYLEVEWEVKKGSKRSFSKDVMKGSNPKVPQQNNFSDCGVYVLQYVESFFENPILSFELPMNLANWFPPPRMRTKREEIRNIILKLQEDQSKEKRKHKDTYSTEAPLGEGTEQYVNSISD
Activity calls are given as the source filed them.
Give one outcome, nothing more. List: class 1 for active, class 0 for inactive

Below, 5 compounds whose answers are already recorded.
COc1ccc(-n2nc3cc(N)c(Br)cc3n2)cc1	class 1
CC(=O)c1sc(Nc2nc3ccc(F)cc3s2)nc1C	class 1
COc1ccc(/C=C2/CCc3ccccc3C2=O)cc1OC	class 1
Cc1ccc(-c2noc(CSc3ccccc3)n2)cc1	class 1
Cc1cc(C)c(O)c(-c2cc(C(=O)Nc3cccnc3)[nH]n2)c1	class 0

## Input Dear colleague, could you share the recorded outcome for CNC(=O)c1ccsc1NC(=O)c1ccc2c(c1)CCCC2 when you have a moment?
## Output class 1

## Input Hello, I am checking results. What call was entered for Cc1ccc(OCc2nc(-c3cccs3)no2)c([N+](=O)[O-])c1 ?
## Output class 1

# credit: ChEMBL document CHEMBL1201862
